B1: FOXJ1 (parent)
chain: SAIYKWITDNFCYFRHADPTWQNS

- Variants of: B1
- ASSAY_PROTOCOL: protein stability index of a GFP-peptide fusion (GPS, HEK-293T) (PSI 1-6); higher = more stable;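 also: lentivirally expressed fusions sorted by FACS into six bins by GFP to DsRed ratio, PSI derived from sequencing read proportions per bin multiplied by bin number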
- CONDITIONS_USED: c terminus: a fixed tail appended
# binarize protein stability index: threshold 3 inclusive, high side Met, low side Not met

Previously resolved entries follow.
Y13D; Not met
N10V; Not met
I3Y; Met
W21G; Not met
D9M; Met
I7L; Not met
W21M; Met
C12G; Not met

// query Say whether N10M shows protein stability index of 3 or more.
// result Not met

// query Answer whether protein stability index of I3M is greater than or equal to 3.
// result Met

// query Does protein stability index meet or surpass 3 for S1F ?
// result Met

// query # bool: protein stability index of N10P >= 3
// result Not met

// query Hi team, for R15A , is the recorded protein stability index at or above 3?
// result Not met

// query Determine whether this variant has protein stability index no lower than 3: S1L
// result Not met

// query Answer whether protein stability index of Y13S is greater than or equal to 3.
// result Not met

Origin of values: the supplement of paper PMC10567573
